Before we begin, note that these Ki values for hCRTH2 receptor (Homo sapiens (Human)) originate from several publications.

Example entries and their recorded answers appear below.
1. Cc1noc(C)c1CN1C(=O)c2ccccc2C1c1c(C)n(CC(=O)O)c2ccccc12 (centres unmarked)    < 1000 nM
2. CSCCc1nc2cc(NS(=O)(=O)c3ccc(F)cc3)ccc2n1CC(=O)O    < 10000 nM
3. Cc1c(CC(=O)O)c2cccnc2n1Cc1ccc(S(=O)(=O)C(C)C)cc1    98 nM
4. CCCCc1nc2cc(N(Cc3ccccc3)S(=O)(=O)c3ccc(F)cc3)ccc2n1CC(=O)O    < 1000 nM

Give Ki for all molecules that follow.
1. Cc1c(C2=NN(Cc3ccccc3)C(=O)C(C)(C)C2)c2cc(Cl)ccc2n1CC(=O)O
2. Cc1c(CC(=O)O)c2cccnc2n1Cc1ccc(S(C)(=O)=O)cc1Cl
3. O=C(O)CN1C(=O)[C@@]2(CC(=O)N(Cc3ccccc3F)C2=O)c2cc(Cl)ccc21
4. O=C(O)Cc1c2n(c3ccccc13)CC(n1nncc1COc1c(Cl)cccc1Cl)CC2 (centres unmarked)

Marked response:
1: < 100 nM; 2: 3 nM; 3: 28 nM; 4: 5 to 10 nM

###

pKi: −log10 of the molar value.
The entries that follow carry pKi values tested on hCRTH2 receptor (Homo sapiens (Human), UniProt Q9Y5Y4), drawn from several published reports.
Classification field: enter y for pKi values not below 7, n for values below it.

1. Cc1nn(Cc2ccc(-c3cc4ccc(Cl)cc4[nH]3)cc2)c(C)c1CC(=O)O    y
2. O=C(O)Cc1c2n(c3c(F)cccc13)CC(n1nncc1Cc1ccccc1)CC2 (single isomer, unassigned)    n
3. Cc1nn(Cc2ccc(-c3nc4c(C)cncc4[nH]3)cc2)c(C)c1CC(=O)O    n
4. CCc1nn(Cc2ccc(-c3nc4cc(Br)ccc4[nH]3)cc2F)c(CC)c1CC(=O)O    y
5. Cc1nn(Cc2ccc(-c3nc4cc(C(C)(C)C)ccc4[nH]3)cc2F)c(C)c1CC(=O)O    y

Please turn your attention to the following entry.
Exam item: Reported pKi at or above 7? Cc1c(CC(=O)O)c2cccnc2n1C(C)c1ccc(S(C)(=O)=O)cc1 (stereo not shown)
Marked response: y

###

# merged literature set: pKi with UniProt Q9Y5Y4
Answers are plain numbers, as −log10 of the molar value.

// below: answered molecules
1) O=S(=O)(Nc1nccnc1-c1ccc(Cn2ccc3ccccc32)cc1)c1ccccc1C(F)(F)F    6.00
2) Cc1nn(Cc2ccc(-c3cc4ccc(C(F)(F)F)cc4[nH]3)cc2F)c(C)c1CC(=O)O    9.30
3) CCc1nn(Cc2ccc(-c3nc4cc(Cl)ccc4[nH]3)cc2)c(CC)c1CC(=O)O    9.52

Now turn to the next molecule.
Exam item: What value of pKi has been reported for the following molecule? Cc1c(CC(=O)O)c2ccc(F)cn2c1Sc1ccc(Cl)cc1Cl
Marked response: 7.57

###

pKi: −log10 of the molar value.
Literature roundup of hCRTH2 receptor (Homo sapiens (Human), UniProt Q9Y5Y4) data, read-out pKi.

1. Cc1c(Cc2ccc3cccc(O)c3n2)c2cc(F)ccc2n1CC(=O)O    8.22
2. O=C(O)CN1C(=O)C2(CC(=O)N(Cc3ccccc3F)C2=O)c2cc(Cl)ccc21 (stereo not shown)    7.62
3. CC(O)(c1ccc(F)cc1)c1cnnn1C1CCc2c(CC(=O)O)c3ccccc3n2C1 (single isomer, unassigned)    7.00 to 7.30
4. CC(C)c1nc2c(Cl)ccc(OCC(=O)O)c2c(OC(F)F)c1Cc1ccc(S(C)(=O)=O)cc1    > 7.00
5. Cc1c(C2=NN(Cc3cccc(C(F)(F)F)c3)S(=O)(=O)c3ccccc32)c2cc(F)ccc2n1CC(=O)O    > 6.00

Could you report pKi for every entry in the following list?
1. CCCc1nc2cc(N(Cc3ccccc3)C(=O)C3CCCCC3)ccc2n1CC(=O)O
2. Cc1nc2c(Cl)ccc(OCC(=O)O)c2c(C)c1Cc1ccc(Cl)cc1
3. CCCc1nc2cc(N(Cc3ccc(OC(F)(F)F)cc3)S(=O)(=O)c3ccc(F)cc3)ccc2n1CC(=O)O
4. Cc1noc(C)c1CN1C(c2c(C)n(CC(=O)O)c3ccccc23)c2ccc(F)cc2S1(=O)=O (stereo not shown)
5. Cc1nc2c(Cl)ccc(OCc3nnn[nH]3)c2c(C)c1Cc1ccc(Cl)cc1
6. CCCc1nc2cc(N(Cc3ccccc3)C(=O)c3ccccc3F)ccc2n1CC(=O)O

Marked response:
["> 5.00", "> 7.00", "> 7.00", "> 7.00", "> 5.00", "< 5.00"]

Could I get pKi for every one of these entries?
1. Cc1nc2c(Cl)ccc(-c3nnn[nH]3)c2c(C)c1Cc1ccc(Cl)cc1
2. Cc1c(C2=NN(Cc3ccc(Cl)cc3)S(=O)(=O)c3ccccc32)c2cc(F)ccc2n1CC(=O)O
3. O=C(O)Cc1c2n(c3ccccc13)CC(n1nncc1C(O)(c1ccccc1)C(F)(F)F)CC2 (stereo not shown)

Marked response:
> 5.00
> 6.00
7.30 to 8.00

# batch size: 2; output pKi per entry
1. CCCc1nc2cc(N(CC(=O)OCC)S(=O)(=O)c3ccc(F)cc3)ccc2n1CC(=O)O
2. Cc1c(CC(=O)O)c2cc(F)ccc2n1Cc1ccc(S(=O)(=O)N2CCCC2)cc1

Marked response:
1: > 6.00; 2: 7.44

###

Below, pKi values reported for hCRTH2 receptor (Homo sapiens (Human), UniProt Q9Y5Y4) across several publications.
Numbers only, as −log10 of the molar value.

The examples below pair each entry with its known result.
1) Cc1cc2ccccc2n1Cc1ccc(-c2nccnc2NS(=O)(=O)c2ccccc2Cl)cc1    5.39
2) CN(Cc1ccc(-c2nccnc2NS(=O)(=O)c2cccc(Cl)c2)cc1)c1ccc(OC(F)(F)F)cc1    5.29
3) Cc1c(CC(=O)O)c2cccnc2n1Cc1ccc(S(C)(=O)=O)c(C(F)(F)F)c1    7.66

# batch size: 4; output pKi per entry
1. O=C(O)CN1C(=O)C2(CC(=O)N(Cc3ccccc3)C2)c2cc(Cl)ccc21 (centres unmarked)
2. CCc1nn(Cc2ccc(-c3nc4cc(C(C)(C)C)ccc4[nH]3)cc2)c(CC)c1CC(=O)O
3. Cc1nn(Cc2ccc(-c3nc4cc(Cl)ccc4[nH]3)cc2)c(C)c1CC(=O)O
4. Cc1nn(Cc2ccc(-c3cc4cc(Cl)ccc4[nH]3)cc2)c(C)c1CC(=O)O

Marked response:
6.20
9.70
8.72
8.38

###

pKi: −log10 of the molar value.
# pKi against hCRTH2 receptor (Homo sapiens (Human), UniProt Q9Y5Y4), merged from multiple literature sources

Worked cases, answers included:
1. Cc1ccc2c(c1)c(C1c3ccccc3S(=O)(=O)N1Cc1nc3ccccc3s1)cn2CC(=O)O (stereo not shown)    > 6.00
2. Cc1c(C2c3ccc(F)cc3S(=O)(=O)N2CCc2ccccc2)c2ccccc2n1CC(=O)O (stereo not shown)    > 7.00
3. Cc1c(S(=O)(=O)Nc2cccc(Cl)c2)c2cc(F)ccc2n1CC(=O)O    7.35

Then this compound:
Exam item: # query: pKi | item CCCc1nc2cc(N(Cc3ccc(F)cc3)S(=O)(=O)c3ccccc3F)ccc2n1CC(=O)O | system: hCRTH2 receptor (Homo sapiens (Human), UniProt Q9Y5Y4)
Marked response: > 6.00

###

Listing of Ki toward hCRTH2 receptor (Homo sapiens (Human)), each taken from a published source.

The cases that follow already have their Ki on record.
1) Cc1c(Cc2ccc(S(C)(=O)=O)cc2)c(OC(F)F)nc2c(Cl)ccc(OCC(=O)O)c12    < 100 nM
2) COCCCN1C(c2cn(CC(=O)O)c3ccc(C)cc23)c2ccccc2S1(=O)=O (centres unmarked)    < 10000 nM
3) Cc1c(Cc2ccc(S(=O)(=O)Cc3ccccc3)cc2)c2cc(F)ccc2n1CC(=O)O    1 nM

Record Ki for all entries; do not skip any.
1. Cc1c(S(=O)(=O)NCc2ccc(Cl)c(Cl)c2)c2cc(F)ccc2n1CC(=O)O
2. CCc1nn(Cc2ccc(-c3nc4cc(C)ccc4[nH]3)cc2)c(CC)c1CC(=O)O
3. Cc1c(C2c3ccccc3S(=O)(=O)N2CC(=O)Nc2ccc(F)cc2)c2ccccc2n1CC(=O)O (centres unmarked)
4. CCc1nn(Cc2ccc(-c3nc4c(C)cccc4[nH]3)cc2)c(CC)c1CC(=O)O

Marked response:
1: 181 nM; 2: 1.3 nM; 3: < 10000 nM; 4: 2.2 nM

Exam item: Quick one: Ki of O=C(O)CN1C(=O)C2(CC(=O)N(Cc3cc(Cl)ccc3F)C2)c2cc(Cl)ccc21 (centres unmarked) ?
Marked response: 22 nM

###

This section presents Ki values reported for hCRTH2 receptor (Homo sapiens (Human)) in the literature.
Numbers only, in nM.

1. Cc1c([C@H](C)C(=O)O)c2ccc(F)cn2c1Sc1ccc(S(C)(=O)=O)cc1    57
2. Cc1c([S+]([O-])c2nc3ccccc3s2)c2cc(F)ccc2n1CC(=O)O (centres unmarked)    54
3. CCc1nn(Cc2ccc(-c3nc4ccccc4n3C)cc2)c(CC)c1CC(=O)O    340

Exam item: Find the recorded Ki belonging to Cc1c(CC(=O)O)c2ccc(C#N)cn2c1Cc1ccc2cc(F)ccc2n1 and report it.
Marked response: 7.2
